All values here come from PubChem BioAssay AID2060882.

test system: 898857-211-R-J1-PDC complex spheroids, growth % test/control; experiment: Anticancer human tumor 898857-211-R-J1-PDC patient-derived melanoma cell line growth inhibition [RAS]; conditions: curve of first compound; second compound 0.000949 µM;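 also: spheroids exposed to compound for seven days before readout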
endpoint: IC50 (nM)

Answered examples (3):
CCc1c2c(nc3ccc(O)cc13)-c1cc3c(c(=O)n1C2)COC(=O)[C@]3(O)CC + CCn1c(-c2cccnc2C(C)OC)c2c3cc(ccc31)N1CCOC(CC(NC(=O)C(C(C)C)N(C)C(=O)C3(F)CCN(C(=O)C#CC(C)(C)N(C)C)CC3)C(=O)N3CCCC(N3)C(=O)OCC(C)(C)C2)C1 : 5.13
Nc1ccn(C2OC(CO)C(O)C2(F)F)c(=O)n1 (stereo not drawn) + CCn1c(-c2cccnc2C(C)OC)c2c3cc(ccc31)N1CCOC(CC(NC(=O)C(C(C)C)N(C)C(=O)C3(F)CCN(C(=O)C#CC(C)(C)N(C)C)CC3)C(=O)N3CCCC(N3)C(=O)OCC(C)(C)C2)C1 : 6.76
C=CC(=O)Nc1cc(Nc2nccc(-c3cn(C)c4ccccc34)n2)c(OC)cc1N(C)CCN(C)C + CCn1c(-c2cc(N3CCN(C)CC3)cnc2C(C)OC)c2c3cc(ccc31)-c1csc(n1)CC(NC(=O)C1CC1C)C(=O)N1CCCC(N1)C(=O)OCC(C)(C)C2 : 832

A: CC(C)n1nc(-c2ccc3oc(N)nc3c2)c2c(N)ncnc21 + CCn1c(-c2cccnc2C(C)OC)c2c3cc(ccc31)N1CCOC(CC(NC(=O)C(C(C)C)N(C)C(=O)C3(F)CCN(C(=O)C#CC(C)(C)N(C)C)CC3)C(=O)N3CCCC(N3)C(=O)OCC(C)(C)C2)C1
B: CCC(CC)c1cc(NC2CCC(N)C2)n2nccc2n1 (stereo not drawn) + CCn1c(-c2cc(N3CCN(C)CC3)cnc2C(C)OC)c2c3cc(ccc31)-c1csc(n1)CC(NC(=O)C1CC1C)C(=O)N1CCCC(N1)C(=O)OCC(C)(C)C2
Ask | Response body: label of entry with the larger IC50; valid values A , B . Pick one and reply with its label.
Reply | B
